Cited source for all entries: patent US20180327494A1

# Tested System: T1, PDL1-Fc fusion protein (human)
# T1 construct: expressed in CHO or HEK293 cells; also called Human PDL1-Fc; recombinant human PDL1-Fc
# T1 sequence (chain, as listed by the source limits assumed): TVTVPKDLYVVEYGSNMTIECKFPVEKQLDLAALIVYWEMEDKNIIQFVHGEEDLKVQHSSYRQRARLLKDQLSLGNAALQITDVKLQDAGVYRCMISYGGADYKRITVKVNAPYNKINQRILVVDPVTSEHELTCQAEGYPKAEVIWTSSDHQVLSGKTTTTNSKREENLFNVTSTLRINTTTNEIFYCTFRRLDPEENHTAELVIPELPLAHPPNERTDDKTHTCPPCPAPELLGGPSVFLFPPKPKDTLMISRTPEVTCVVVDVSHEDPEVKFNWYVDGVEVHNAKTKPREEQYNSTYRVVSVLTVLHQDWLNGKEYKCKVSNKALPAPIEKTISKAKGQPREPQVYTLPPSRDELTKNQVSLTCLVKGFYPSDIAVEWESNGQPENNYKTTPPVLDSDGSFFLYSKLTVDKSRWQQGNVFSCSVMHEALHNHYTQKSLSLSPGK
# Experimental Details: ELISA, ratio of OD on PDL1-Fc to OD of blank control
Recorded OD (PDL1/blank), one value per entry.
Write the answer as a number in ratio, unit excluded.

Below, each entry is followed by its recorded OD (PDL1/blank) result.
PDL1-69 dAb (VHH, camel heavy chain single domain antibody expressed in E. coli, purified on nickel; also called antibody No. 69; not shown: His tag from expression vector PET32b) VHH: QVQLQESGGGSVQAGGSLRLSCAVQRNISSSYCMAWFRQAPGKQRERVDKILTTPGNTYLADSVKGRFTISQNNAKSTVYLQMNSLKPEDTAMYYCAADSFQKPTCTVVASWPAFQYWGQGTQVTVSS; 21.7
PDL1-27 dAb (VHH, camel heavy chain single domain antibody expressed in E. coli, purified on nickel; also called antibody No. 27; not shown: His tag from expression vector PET32b) VHH: QVQLQESGGGSVQAGGSLRLSCAASGNISSRRCMAWFRQAPGKERERVANILTTTGNTYLADSVKGRFTISQNNAKSTVYLQMNSLKPEDTAMYYCAADSFHDPTCTVVASSGAFQYWGQGTQVTVSS; 48.5

// lookup OD (PDL1/blank) for PDL1-38 dAb (VHH, camel heavy chain single domain antibody expressed in E. coli, purified on nickel; also called antibody No. 38; not shown: His tag from expression vector PET32b) VHH: QVQLQESGGGSVQAGGSLRLSCAVSGFISSRRCMGWFRQAPGKERVGVANITGTGNTYLADSVKGRFTISQNNAKSTVYLQMNSLKPEDTAMYYCAADSFPTCTVVASSGAFQYWGQGTQVTVSS 36.7
